target: Cytochrome P450 2D6 (Homo sapiens); assay: Cytochrome P450 Family 2 Subfamily D Member 6 (CYP2D6) small molecule antagonists: luciferase reporter qHTS assay (AID 1671196); settings: P450-Glo CYP2D6 enzyme assay, luciferin luminescence, 1 h; series mostly up to 115 µM; note: nearly all actives have a fitted effect of over 50% in size
Results filed as inconclusive are left out. Activity calls are given as the source filed them. Calls come from the whole dose curve; as a rule, active = well fitted inhibition curve with a large enough effect in the repeat runs; inconclusive = weak or mixed curves; inactive = no such curve, though single readings can be large or run the other way.
Outcome (select one): active, inactive

{"compound": "COc1ccc(CN2CCN(C(c3ccc(F)cc3)c3ccc(F)cc3)CC2)c(OC)c1OC", "cat": "active"}
{"compound": "CN(C)c1ccc(SC#N)cc1", "cat": "active"}
{"compound": "CC[C@@]1(O)C(=O)OCc2c1cc1n(c2=O)Cc2c-1nc1ccccc1c2/C=N/OC(C)(C)C", "cat": "inactive"}
{"compound": "O=C1Cc2cc(CCN3CCN(c4nsc5ccccc45)CC3)c(Cl)cc2N1", "cat": "inactive"}

# input for lookup
Q. Can you look up the reported call for c1cc(C(c2ccc(OCC3CO3)cc2)c2ccc(OCC3CO3)cc2)ccc1OCC1CO1 (stereo not given) for me?
A. inactive

====

target: Nuclear receptor subfamily 1 group I member 2 (Homo sapiens) (UniProt O75469); test: Human pregnane X receptor (PXR) activation by small molecules, qHTS assay (AID 1346985); conditions: DPX-2 HepG2 CYP3A4-luciferase, 24 h; series mostly up to 38.3 µM; note: nearly all actives have a fitted effect of over 40% in size
Records with an inconclusive call do not appear. The source made the active and inactive calls. Calls follow the shape of the dose curve; as a rule, active = well fitted activation curve with a large enough effect in the repeat runs; inconclusive = weak or mixed curves; inactive = flat fitted curve, though single readings scatter.
Outcome (select one): active, inactive

Example results:
{"compound": "CN1CCN(CCC(=O)N2c3ccccc3Sc3ccc(C(F)(F)F)cc32)CC1", "cat": "active"}
{"compound": "Cc1c(C)c2c(c(C)c1OC(=O)CCC(=O)O)CC[C@@](C)(CCC[C@H](C)CCC[C@H](C)CCCC(C)C)O2", "cat": "inactive"}
{"compound": "O=C(Nc1ccc(Oc2ccc(Cl)cc2)c(Cl)c1)c1cc(I)cc(I)c1O", "cat": "active"}
{"compound": "CN1CCC(Nc2ncc3ncnc(Nc4ccc(F)c(Cl)c4)c3n2)CC1", "cat": "active"}

Q. Can you look up the reported call for "CCOc1ccc2nc3cc(N)ccc3c(N)c2c1" for me?
A. inactive

Q. Can you look up the reported call for "CC[C@@]1(O)C(=O)OCc2c1cc1n(c2=O)Cc2cc3c(CN(C)C)c(O)ccc3nc2-1" for me?
A. inactive

Q. Can you look up the reported call for Cc1cccc(CN2CCN(C(c3ccccc3)c3ccc(Cl)cc3)CC2)c1 (stereo not given) for me?
A. inactive

Q. Can you look up the reported call for "Cc1cc(O)c2ccccc2c1O" for me?
A. inactive

Q. Can you look up the reported call for "CC(C)(C)C(=O)OCOC(=O)[C@@H]1N2C(=O)[C@@H](NC(=O)[C@H](N)c3ccccc3)[C@H]2SC1(C)C" for me?
A. inactive

Q. Can you look up the reported call for "Oc1c(Cl)cc(Cl)c2cccnc12" for me?
A. active

====

molecular target: Luciferin 4-monooxygenase (Photinus pyralis); test: qHTS assay to identify small molecule inhibitors of firefly luciferase (AID 1224835); note: nearly all actives have a fitted effect of over 25% in size; conditions: purified P. pyralis luciferase, luminescence inhibition; series mostly up to 115 µM
Inconclusive results are not listed. The source made the active and inactive calls. Calls come from the whole dose curve; as a rule, active = well fitted inhibition curve with a large enough effect in the repeat runs; inconclusive = weak or mixed curves; inactive = flat fitted curve, though single readings scatter.
Outcome (select one): active, inactive

Example results:
{"molecule": "CCN(Cc1cccnc1)C(=O)c1cccc(Cl)c1[C@]1(C)C(=O)N(Cc2ccc(OC)cc2OC)c2ccc(Cl)cc21", "cat": "inactive"}
{"molecule": "CCc1cc(Cc2cc(CC)cc(C(C)(C)C)c2O)c(O)c(C(C)(C)C)c1", "cat": "inactive"}
{"molecule": "O=C(O)c1cc(O)c2c(c1)C(=O)c1cccc(O)c1C2=O", "cat": "inactive"}
{"molecule": "C[C@H](CCC(=O)O)[C@H]1CC[C@H]2[C@@H]3CC[C@@H]4C[C@H](O)CC[C@]4(C)[C@H]3CC[C@]12C", "cat": "inactive"}
{"molecule": "CCCCCCCCCCC=O", "cat": "inactive"}
{"molecule": "COc1ccc(CN2CCN(C(c3ccc(F)cc3)c3ccc(F)cc3)CC2)c(OC)c1OC", "cat": "inactive"}

Q. Can you look up the reported call for "C=CC(=O)OCCn1c(=O)n(CCOC(=O)C=C)c(=O)n(CCOC(=O)C=C)c1=O" for me?
A. inactive

Q. Can you look up the reported call for "CCOC(=O)O[C@]1(C(=O)OCCl)CC[C@H]2[C@@H]3CCC4=CC(=O)C=C[C@]4(C)[C@H]3[C@@H](O)C[C@@]21C" for me?
A. inactive

Q. Can you look up the reported call for "NC(=O)NS(=O)(=O)c1ccc(N)cc1" for me?
A. inactive

Q. Can you look up the reported call for "Oc1cccc2cc3cccc(O)c3c(O)c12" for me?
A. active

Q. Can you look up the reported call for "O=C1c2ccccc2Cc2ccccc21" for me?
A. inactive
